# experimentalTarget: HAT1 (Homo sapiens)
# Sequence (O14929 1-419): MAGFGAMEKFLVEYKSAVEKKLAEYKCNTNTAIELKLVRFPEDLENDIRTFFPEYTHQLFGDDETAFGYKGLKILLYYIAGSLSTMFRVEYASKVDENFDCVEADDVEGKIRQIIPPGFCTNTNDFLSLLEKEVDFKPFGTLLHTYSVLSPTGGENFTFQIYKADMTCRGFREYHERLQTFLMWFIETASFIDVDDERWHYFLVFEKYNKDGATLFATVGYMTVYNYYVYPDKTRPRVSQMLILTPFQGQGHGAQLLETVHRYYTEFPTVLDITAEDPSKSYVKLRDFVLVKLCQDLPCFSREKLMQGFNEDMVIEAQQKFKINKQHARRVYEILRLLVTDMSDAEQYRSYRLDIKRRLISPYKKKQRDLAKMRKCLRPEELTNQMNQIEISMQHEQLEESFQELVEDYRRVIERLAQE
# experimentNotes: FDA library screening (analysis service PLEXERA) and binding strength, HAT1
Counter-ions that a name gives are not always drawn.
reportedEndpoint: inhibition of function of HAT1

- compound: "CC(N/C(=N\\C#N)Nc1ccncc1)C(C)(C)C (stereo not shown) [pinacidil]"
  reportedEndpoint: "inhibition of function of HAT1"
  result: "inhibited only HAT1"
- compound: "COC(=O)CCc1ccc(OCC(O)CNC(C)C)cc1 (stereo not shown) [esmolol hydrochloride]"
  reportedEndpoint: "inhibition of function of HAT1"
  result: "inhibited only HAT1"
- compound: "C=C1[C@@H]2CC[C@H]3[C@]4(C)C[C@H](O[C@@H]5O[C@H](CO)[C@@H](OS(=O)(=O)O)[C@H](OS(=O)(=O)O)[C@H]5OC(=O)CC(C)C)C[C@@H](C(=O)O)[C@H]4CC[C@]3(C2)[C@@H]1O [atractyloside potassium salt]"
  reportedEndpoint: "inhibition of function of HAT1"
  result: "inhibited only HAT1"
